Molecular target: UniProtKB Q9BZ95
Sequence (Q9BZ95 1-1437): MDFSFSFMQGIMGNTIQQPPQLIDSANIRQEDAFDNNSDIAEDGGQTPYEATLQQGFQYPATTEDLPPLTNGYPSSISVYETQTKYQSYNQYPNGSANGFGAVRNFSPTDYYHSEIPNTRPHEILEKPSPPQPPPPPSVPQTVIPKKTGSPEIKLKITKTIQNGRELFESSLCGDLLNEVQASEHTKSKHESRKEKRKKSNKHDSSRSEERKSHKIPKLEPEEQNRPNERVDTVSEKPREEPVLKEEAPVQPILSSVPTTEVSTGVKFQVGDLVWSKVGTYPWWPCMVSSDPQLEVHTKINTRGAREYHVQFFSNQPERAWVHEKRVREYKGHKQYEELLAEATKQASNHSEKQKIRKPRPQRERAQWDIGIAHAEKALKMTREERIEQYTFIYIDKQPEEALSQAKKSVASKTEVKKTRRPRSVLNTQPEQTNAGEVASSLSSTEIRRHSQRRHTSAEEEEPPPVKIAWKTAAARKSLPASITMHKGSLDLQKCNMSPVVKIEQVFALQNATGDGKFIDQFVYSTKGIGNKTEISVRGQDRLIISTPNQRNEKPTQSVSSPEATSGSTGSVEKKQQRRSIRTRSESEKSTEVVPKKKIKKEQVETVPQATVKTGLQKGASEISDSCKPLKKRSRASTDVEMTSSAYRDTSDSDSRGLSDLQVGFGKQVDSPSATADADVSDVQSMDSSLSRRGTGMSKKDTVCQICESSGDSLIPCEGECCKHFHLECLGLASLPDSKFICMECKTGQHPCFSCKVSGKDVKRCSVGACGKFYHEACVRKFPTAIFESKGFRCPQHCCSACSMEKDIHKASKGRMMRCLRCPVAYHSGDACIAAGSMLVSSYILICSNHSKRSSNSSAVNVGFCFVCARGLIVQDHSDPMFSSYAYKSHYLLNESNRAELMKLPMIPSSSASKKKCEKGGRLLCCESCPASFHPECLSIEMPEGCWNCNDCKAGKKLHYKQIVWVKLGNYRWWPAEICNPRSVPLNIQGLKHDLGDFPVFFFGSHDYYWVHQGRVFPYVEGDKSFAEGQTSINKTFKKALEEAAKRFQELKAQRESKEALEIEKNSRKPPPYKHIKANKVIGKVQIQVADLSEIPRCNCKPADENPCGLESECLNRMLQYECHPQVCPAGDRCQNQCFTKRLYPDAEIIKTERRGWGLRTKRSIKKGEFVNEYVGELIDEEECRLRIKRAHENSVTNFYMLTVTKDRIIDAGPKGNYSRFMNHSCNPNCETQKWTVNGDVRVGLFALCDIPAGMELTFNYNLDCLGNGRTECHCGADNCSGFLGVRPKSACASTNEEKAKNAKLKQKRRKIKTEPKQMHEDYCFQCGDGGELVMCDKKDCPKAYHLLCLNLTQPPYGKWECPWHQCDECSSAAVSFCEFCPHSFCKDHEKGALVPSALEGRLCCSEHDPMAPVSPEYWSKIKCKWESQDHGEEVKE
Experiment: Off-target methyltransferase profiling (MTase-Glo)
Assay type: biochemical
measurement_name: IC50 (µM)
// units = µM; emit number, no label

I'm curious: which IC50 was measured for Cc1ccc(Nc2ncc3c(n2)N(C)C(=O)N(c2cccc(N)c2)C3)cn1 [LZQ-02-023-01] tested on UniProtKB Q9BZ95?
7.36
